Origin of measurements: patent US20250026849A1

Target: T1, CD123 (Homo sapiens (Human), UniProt P26951 19-305, limits assumed)
T1 construct: The CD123 construct used in the ELISA is not described; also called CD123-Signal
T1 sequence: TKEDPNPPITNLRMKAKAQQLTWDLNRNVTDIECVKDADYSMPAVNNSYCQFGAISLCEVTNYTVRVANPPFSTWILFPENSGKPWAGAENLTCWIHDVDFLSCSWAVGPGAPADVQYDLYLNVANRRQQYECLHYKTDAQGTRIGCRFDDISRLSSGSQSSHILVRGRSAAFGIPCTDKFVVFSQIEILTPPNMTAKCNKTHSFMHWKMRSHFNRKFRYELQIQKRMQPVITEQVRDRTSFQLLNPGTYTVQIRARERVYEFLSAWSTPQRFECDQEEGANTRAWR
Test: ELISA
Parameters: unit not given here
endpoint: ELISA_avg
Hey, just send me the number, nothing else.

These recorded examples may help you get a feel for the data.
[
  {
    "binder": "D domain of SEQ ID NO: 462 (designed binder) MGSWFEFYMRLDAIYDRLTALGGSEAELAAFEKEIAAFESELQAYKGKGNPEVERLRTFAANIRKELQAYRHN",
    "ELISA_avg": 13.1
  },
  {
    "binder": "D domain of SEQ ID NO: 456 (designed binder) MGSWVEFSIRLDAIYTRLVALGGSEAELAAFEKEIAAFESELQAYKGKGNPEVEMLRKGAANIRKELQAYRHN",
    "ELISA_avg": 15.1
  },
  {
    "binder": "D domain of SEQ ID NO: 495 (designed binder) MGSWVYFKDELADIKDFLEALGGSEAELAEFEEDIATFEYDLQWYKGKGNPEVEALRKEAAAIRDELQAYRHN",
    "ELISA_avg": 4.6
  },
  {
    "binder": "D domain of SEQ ID NO: 637 (designed binder) MGSWIEFMDRLWAIDQRLWALGGSEAELAWFEEEIAWFEEELQVYKGKGNPEVEALEWEATAISEELWAYRHN",
    "ELISA_avg": 6.5
  },
  {
    "binder": "D domain of SEQ ID NO: 451 (designed binder) MGSWTEFNLRLDAIYDRLMALGGSEAELAAFEKEIAAFESELQAYKGKGNPEVEWLRASAAAIRVELQAYRHN",
    "ELISA_avg": 14.4
  },
  {
    "binder": "D domain of SEQ ID NO: 512 (designed binder) MGSWWEFKEDLAEIKWFLEALGGSEAELAWFEHDIAKFEFELQYYKGKGNPEVEALRKEAAAIRDELQAYRHN",
    "ELISA_avg": 5.1
  },
  {
    "binder": "D domain of SEQ ID NO: 364 (designed binder) MGSWVEFDQRLEAIYDRLYALGGSEAELAAFEKEIAAFESELQAYKGKGNPEVEWLREDAAQIRKWLQAYRHN",
    "ELISA_avg": 5.1
  },
  {
    "binder": "D domain of SEQ ID NO: 638 (designed binder) MGSWEEFNWRLRAIDERLFALGGSEAELAWFEYDIAEFEEQLQVYKGKGNPEVEALRVEAAAIAEELYAYRHN",
    "ELISA_avg": 5.4
  },
  {
    "binder": "D domain of SEQ ID NO: 568 (designed binder) MGSWWEFDHRLTAIDTRLQALGGSEAELAEFESSIAEFEWWLQDYKGKGNPEVEALFAEAEAIYVELDAYRHN",
    "ELISA_avg": 4.3
  },
  {
    "binder": "D domain of SEQ ID NO: 587 (designed binder) MGSWDEFYYRLVAITHRLHALGGSEAELAWFEDDIAGFEWDLQTYKGKGNPEVEALYKEAGAIGMELTAYRHN",
    "ELISA_avg": 5.4
  }
]

Look at this binder and give its reported ELISA_avg. D domain of SEQ ID NO: 409 (designed binder) MGSWYEFWGRLDAIEERLWALGGSEAELAAFEKEIAAFESELQAYKGRGNPEVEMLREDAAEIRGQLQAYRHN
5.4

Look at this binder and give its reported ELISA_avg. D domain of SEQ ID NO: 365 (designed binder) MGSWVEFHDRLEAIEDRLLALGGSEAELAAFEKEIAAFESELQAYKGKGNPEVEDLREYAAGIRWFLQAYRHN
3.3
